assay: Inhibition of JAK2 V617F mutant in human SET-2 cells assessed as reduction in cell viability incubated for 72 hrs by MTT assay
Property Label: IC50

- Smiles: "CCCCN1CCc2cc(Nc3ncc(C)c(-c4cnn(C(C)C)c4)n3)ccc2C1"
  Result: "0.592 µM"
- Smiles: "CC(C)n1cc(-c2nc(Nc3ccc4c(c3)CCN(CCCCO)C4)ncc2F)cn1"
  Result: "0.604 µM"
- Smiles: "Cc1cnc(Nc2ccc3c(c2)CCN(C/C=C/C(=O)NC(C)(C)C)C3)nc1-c1cnn(C(C)C)c1"
  Result: "0.612 µM"
